Target: hα2B receptor (Homo sapiens, UniProt P18089)
Construct: expressed in transfected cells
Sequence (P18089 whole entry): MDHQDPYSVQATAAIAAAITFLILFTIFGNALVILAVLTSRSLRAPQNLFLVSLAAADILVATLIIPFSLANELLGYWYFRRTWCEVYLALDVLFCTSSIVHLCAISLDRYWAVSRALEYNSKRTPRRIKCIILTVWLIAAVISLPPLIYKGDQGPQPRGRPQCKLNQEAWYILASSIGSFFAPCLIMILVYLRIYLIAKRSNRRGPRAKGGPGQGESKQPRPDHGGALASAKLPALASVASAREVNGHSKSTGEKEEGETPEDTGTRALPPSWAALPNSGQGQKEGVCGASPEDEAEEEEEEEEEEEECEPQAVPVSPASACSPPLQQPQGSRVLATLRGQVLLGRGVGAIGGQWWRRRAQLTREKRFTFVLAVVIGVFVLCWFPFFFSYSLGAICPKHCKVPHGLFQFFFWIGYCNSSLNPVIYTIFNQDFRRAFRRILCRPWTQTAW
Test: Radioligand binding experiment for hα2B receptor ([3H]-raulwolscine)
Conditions: read-out: hα2B pIC50 (converted)
Readout kind: IC50 (nM)
Give the value in nM but do not write nM after it.

A selection of reference data follows.
# Molecule, Test target, Units label, IC50
data = [
    ("COc1cc2c(cc1OC)C1=NOC(CN3CCN(C/C=C(\\C)c4ccccc4)CC3)C1CO2 (single isomer, unassigned)", "hα2B receptor (Homo sapiens, UniProt P18089)", "nM", 20),
    ("COc1cc2c(cc1OC)C1=NOC(CN3CCN(Cc4ccc5ccccc5c4)CC3)C1CO2 (single isomer, unassigned)", "hα2B receptor (Homo sapiens, UniProt P18089)", "nM", 6.17),
    ("COc1cc2c(cc1OC)C1=NOC(CN3CCN(C/C=C/c4ccccc4)CC3)C1CO2 (single isomer, unassigned) [Compound 1]", "hα2B receptor (Homo sapiens, UniProt P18089)", "nM", 3.24),
]

Now for another entry.
Data request: IC50 lookup needed for COc1cc2c(cc1OC)C1=NOC(CN3CCN(C/C=C/c4ccccc4)CC3)C1CO2 (single isomer, unassigned) [Compound 8] , thanks.
Data returned: 7.24
